Please go through the items and note down their EC50.
Biological target: RNA-binding protein pos-1 (Caenorhabditis elegans)
Sequence (G5EF15 whole entry, the tested form may be a part): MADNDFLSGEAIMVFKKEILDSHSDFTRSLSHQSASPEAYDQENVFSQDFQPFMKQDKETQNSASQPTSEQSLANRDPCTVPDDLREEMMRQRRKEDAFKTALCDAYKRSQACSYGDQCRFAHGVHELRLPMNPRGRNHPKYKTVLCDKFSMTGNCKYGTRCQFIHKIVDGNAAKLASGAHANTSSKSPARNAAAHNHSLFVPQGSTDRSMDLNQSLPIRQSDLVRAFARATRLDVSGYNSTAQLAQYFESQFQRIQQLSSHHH
Test: disruptors of C. elegans POS-1 RNA interaction – biochemical, fluorescence polarization, dose response (AID 1964);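 note: purified POS-1 fused to maltose binding protein made in E. coli; potency of compounds blocking POS-1 binding to fluorescent RNA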
Activity calls are given as the source filed them. Cut-off read from the data, not from the text of the source: actives have a measured EC50 and inactives only a lower limit.

I am curious: what EC50 value has been reported for Cc1cc2c3c(c1)C1(C(=O)N3C(C)(C)CC2C)C(C#N)=C(N)OC2=C1C(=O)CC(C)(C)C2 (centres undefined) ?
> 300 µM (not active)

I am curious: what EC50 value has been reported for C1=CC2c3ccccc3NC(c3ccncc3)C2C1 (centres undefined) ?
> 300 µM (not active)

I am curious: what EC50 value has been reported for COc1cccc(CN2C(=O)C3(C(C#N)=C(N)OC4=C3C(=O)CCC4)c3ccccc32)c1 (centres undefined) ?
> 300 µM (not active)

I am curious: what EC50 value has been reported for CN1C(=O)/C(=C\c2ccc(N(C)C)cc2)OC1=S ?
> 300 µM (not active)

I am curious: what EC50 value has been reported for CSCC(C)N1CCC(n2nccc2NC(=O)CCCc2ccccc2)CC1 (centres undefined) ?
6.99 µM (active)

I am curious: what EC50 value has been reported for O=C(NNC(=O)c1cnccn1)c1cccc([N+](=O)[O-])c1 ?
22.1 µM (active)

I am curious: what EC50 value has been reported for C=CCN1C(=O)S/C(=C\c2ccc(N3CCOCC3)cc2C)C1=O ?
40.8 µM (active)

I am curious: what EC50 value has been reported for Cc1ccc(/C(O)=C/c2nc3ccccc3oc2=O)cc1 ?
> 300 µM (inconclusive)

I am curious: what EC50 value has been reported for Cc1c(Cl)cccc1N1C(=O)NC(=O)/C(=C\c2cc(C)n(-c3cccc(C(=O)O)c3C)c2C)C1=O ?
> 300 µM (not active)

I am curious: what EC50 value has been reported for CCN(CC)c1ccc(/N=C/c2ccc(N(CC)CC)cc2O)cc1 ?
> 300 µM (not active)

I am curious: what EC50 value has been reported for CCOc1ccc(N2C(=O)/C(=C/Nc3ccnn3Cc3ccncc3)c3ccccc3C2=O)cc1 ?
> 300 µM (not active)

I am curious: what EC50 value has been reported for O=C(Nc1ccc(Br)cn1)c1ccc2nccnc2c1 ?
> 300 µM (not active)

I am curious: what EC50 value has been reported for CCOc1ccc(N2C(=O)/C(=C/c3ccc(C)o3)C(=O)NC2=S)cc1 ?
> 300 µM (not active)

I am curious: what EC50 value has been reported for CC(=O)Nc1ccc(S(=O)(=O)NCc2nc(-c3cccc(C)c3)no2)cc1 ?
85.6 µM (active)

---

Molecular target: Zinc finger protein mex-5 (Caenorhabditis elegans, UniProt Q9XUB2)
Sequence (Q9XUB2 whole entry): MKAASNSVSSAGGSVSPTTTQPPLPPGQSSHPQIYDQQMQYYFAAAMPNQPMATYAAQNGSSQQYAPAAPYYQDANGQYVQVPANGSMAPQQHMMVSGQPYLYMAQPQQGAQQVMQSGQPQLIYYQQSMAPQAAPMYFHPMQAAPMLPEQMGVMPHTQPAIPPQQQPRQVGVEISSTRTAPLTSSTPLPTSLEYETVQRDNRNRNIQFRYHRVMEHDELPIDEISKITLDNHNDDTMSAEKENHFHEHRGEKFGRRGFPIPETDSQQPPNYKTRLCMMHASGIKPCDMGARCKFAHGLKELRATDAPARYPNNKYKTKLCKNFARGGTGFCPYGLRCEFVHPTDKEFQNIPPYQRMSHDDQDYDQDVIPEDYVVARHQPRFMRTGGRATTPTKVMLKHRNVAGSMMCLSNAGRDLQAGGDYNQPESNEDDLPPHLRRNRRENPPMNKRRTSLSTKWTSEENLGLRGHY
Assay: potency of MEX-5 RNA-binding blockers – biochemical, C. elegans, fluorescence polarization, dose response (AID 1960)
Outcome Measure: EC50

I am curious: what EC50 value has been reported for CCOc1ccc(N2C(=O)/C(=C/c3ccc(C)o3)C(=O)NC2=S)cc1 ?
> 300 µM (not active)

I am curious: what EC50 value has been reported for O=C(Nc1ccc(Br)cn1)c1ccc2nccnc2c1 ?
> 300 µM (not active)

I am curious: what EC50 value has been reported for O=C1c2cccc3c(O)ccc(c23)C(=O)N1c1ccc(Cl)cc1 ?
0.289 µM (inconclusive)
